- TEST SYSTEM: UniProtKB P30939
- Sequence (P30939 whole entry): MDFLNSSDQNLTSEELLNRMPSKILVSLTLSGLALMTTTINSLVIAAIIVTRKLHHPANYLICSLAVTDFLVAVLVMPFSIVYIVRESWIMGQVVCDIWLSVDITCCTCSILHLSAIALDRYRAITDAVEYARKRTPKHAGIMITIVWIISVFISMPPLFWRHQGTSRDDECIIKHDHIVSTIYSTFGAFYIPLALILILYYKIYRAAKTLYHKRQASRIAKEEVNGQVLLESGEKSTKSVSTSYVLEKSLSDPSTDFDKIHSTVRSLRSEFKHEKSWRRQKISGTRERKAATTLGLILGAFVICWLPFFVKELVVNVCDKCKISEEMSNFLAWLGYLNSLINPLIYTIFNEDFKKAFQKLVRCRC
- PROTOCOL DETAILS: Functional assay (cAMP)
- Protocol: Neuro-receptor binding and functional effects of the “E559 polymorph” was examined by analyzing binding affinity [Ki (nM)], functional agonist activity [EC50 (nM)], and functional antagonist activity [IC50 (nM)] against a panel of key receptors in neurophysiological disorders. […] The measurement of binding affinity of the “E559 polymorph” is represented in TABLE XIII by Ki (nM) which was calculated as percent inhibition of the binding of a radioactively labeled reference ligand at each receptor. […]
RESULT TYPE: EC50 (nM)
Kindly answer with a numeric value in nM, unit omitted.

For this compound ( "CCN(CC)C(=O)[C@H]1C=C2c3cccc4[nH]c(Br)c(c34)C[C@H]2N(C)C1" ), measured EC50 is 3120

For this compound ( "CCN(CC)C(=O)[C@@H]1C=C2c3cccc4[nH]c(Br)c(c34)C[C@H]2N(C)C1" ), measured EC50 is 13.8
